System: C6
testName: CCK-8 cell viability, C6 brain glioma cell line
Assay type: cell-based, human
recordedConditions: Rattus norvegicus, C6, serum-free medium, 24 hours, mean ± SD of 2 to 3 experiments
Protocol: […] CCK-8 (Cell counting kit-8) is analyzed using a highly water-soluble tetrazolium salt-SST-8. […] In an experimental method for evaluating the properties of the compounds according to the present disclosure, various cancer cell lines derived from humans and normal cell lines of each tissue derived from humans and mice were used in this experiment. […] A plate on which the culture was completed was measured in terms of absorbance at 450 nm using a microplate reader. […]
Record form. Attribute: pIC50. Fill in for each entry.
Numbers only, as −log10 of the molar value.

{"molecule": "O=C(Nc1ccc(-c2nc3ccccc3s2)cc1)C(C/N=C/c1ccccc1O)/N=C/c1ccccc1O (stereo not drawn)", "pIC50": 3.84}
{"molecule": "O=C(Nc1ccc(-c2nc3ccccc3s2)cc1)C1CNC(c2ccccn2)=N1 (stereo not drawn)", "pIC50": 3.85}

The record that follows has no pIC50 shown yet.
Write down the reported pIC50 of NCC(N)C(=O)Nc1ccc(-c2nc3ccccc3s2)cc1 (stereo not drawn) , test system: C6.
4.11

---

Record form. Attribute: pIC50. Fill in for each entry.
Test system: MCF-7
testName: CCK-8 cell viability, MCF-7 breast cancer cell line
Format: cell-based, human
recordedConditions: Homo sapiens, MCF7, serum-free medium, 24 hours, mean ± SD of 2 to 3 experiments
Answers are plain numbers, as −log10 of the molar value.

Report pIC50 for each item below.
1. O=C(Nc1ccc(-c2nc3ccccc3s2)cc1)C1CNC(c2ccccn2)=N1 (centres unmarked) [Example L3]
2. O=C(Nc1ccc(-c2nc3ccccc3s2)cc1)C(C/N=C/c1ccccc1O)/N=C/c1ccccc1O (centres unmarked) [Example L2]

1. 3.72
2. 4.01

---

System: HT-29 cell line
testName: CCK-8 cell viability, HT-29 colorectal cancer cell line
Type: cell-based, human
recordedConditions: serum-free medium, 24 hours, mean ± SD of 2 to 3 experiments
assayEndpoint: IC50 (µM)
Numbers only, in µM.

# example entries with known answers
{"molecule": "NCC(N)C(=O)Nc1ccc(-c2nc3ccccc3s2)cc1.[Cl][Pt][Cl] (stereo not shown) [Example L1Pt]", "IC50 / µM": 42.6}
{"molecule": "O=C(Nc1ccc(-c2nc3ccccc3s2)cc1)C1CN=Cc2ccccc2[O][Pt][O]c2ccccc2C=N1 (stereo not shown) [Example L2Pt]", "IC50 / µM": 173}

The record that follows has no IC50 shown yet.
Reported IC50, molecule N.N.[Cl][Pt][Cl] [Cisplatin, cisplatin, reference compound] : ____
39.1

---

Test system: MDA-MB-231
testName: CCK-8 cell viability, MDA-MB-231 breast cancer cell line
Type: cell-based, human
recordedConditions: Homo sapiens, MDA-MB-231, serum-free medium, 24 hours, mean ± SD of 2 to 3 experiments
assayEndpoint: pIC50
Numbers only, as −log10 of the molar value.

Reported pIC50, compound O=C(Nc1ccc(-c2nc3ccccc3s2)cc1)C(C/N=C/c1ccccc1O)/N=C/c1ccccc1O (centres unmarked) : ____
3.82

---

System: HepG2
testName: CCK-8 cell viability, HepG2 liver cancer cell line
Assay type: cell-based, human
recordedConditions: Homo sapiens, HepG2, serum-free medium, 24 hours, mean ± SD of 2 to 3 experiments
Record form. Attribute: IC50. Fill in for each entry.
Give bare numbers, in µM.

{"compound": "O=C(Nc1ccc(-c2nc3ccccc3s2)cc1)C(C/N=C/c1ccccc1O)/N=C/c1ccccc1O (centres unmarked)", "IC50 [µM]": 14.2}

Reported IC50, compound NCC(N)C(=O)Nc1ccc(-c2nc3ccccc3s2)cc1 (centres unmarked) : ____
5.94

---

Test system: PC3
testName: CCK-8 cell viability, PC3 prostate cancer cell line
Assay type: cell-based, human
recordedConditions: Homo sapiens, PC-3, serum-free medium, 24 hours, mean ± SD of 2 to 3 experiments
assayEndpoint: pIC50
Answers are plain numbers, as −log10 of the molar value.

Reported pIC50, compound NCC(N)C(=O)Nc1ccc(-c2nc3ccccc3s2)cc1 (stereo not shown) : ____
4.02

---

Test system: MCF-7
testName: CCK-8 cell viability, MCF-7 breast cancer cell line
Format: cell-based, human
recordedConditions: serum-free medium, 24 hours, mean ± SD of 2 to 3 experiments
assayEndpoint: IC50

{"compound": "NCC(N)C(=O)Nc1ccc(-c2nc3ccccc3s2)cc1.[Cl][Pt][Cl] (stereo not shown) [Example L1Pt]", "IC50": "59 µM"}
{"compound": "O=C(Nc1ccc(-c2nc3ccccc3s2)cc1)C1CNC(c2ccccn2)=N1.[Cl][Pt][Cl] (stereo not shown) [Example L3Pt]", "IC50": "> 500 µM"}
{"compound": "O=C(Nc1ccc(-c2nc3ccccc3s2)cc1)C1CN=Cc2ccccc2[O][Pt][O]c2ccccc2C=N1 (stereo not shown) [Example L2Pt]", "IC50": "> 500 µM"}

Reported IC50, compound N.N.[Cl][Pt][Cl] [Cisplatin, cisplatin, reference compound] : ____
204 µM
